- TEST TARGET: Secreted frizzled-related protein 1 (Homo sapiens) (UniProt Q8N474)
- Sequence (Q8N474 whole entry): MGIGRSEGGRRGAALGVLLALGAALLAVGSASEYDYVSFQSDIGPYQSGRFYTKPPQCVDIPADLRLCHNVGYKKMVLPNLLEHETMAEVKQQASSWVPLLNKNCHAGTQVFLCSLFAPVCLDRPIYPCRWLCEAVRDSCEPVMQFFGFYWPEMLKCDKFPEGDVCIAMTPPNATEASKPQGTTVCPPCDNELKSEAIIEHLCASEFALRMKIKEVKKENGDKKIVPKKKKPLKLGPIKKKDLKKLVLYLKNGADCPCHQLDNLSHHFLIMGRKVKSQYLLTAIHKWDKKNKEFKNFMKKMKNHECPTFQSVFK
- ASSAY METHOD TEXT: Inhibition of human SFRP1 transfected in human U20S cells at 15 uM by TCF-luciferase reporter gene assay relative to control
- Assay type: cell-based
- CONDITION LABEL: U2OS
PROPERTY NAME: fold change (FC)

COMPOUND	fold change (FC)
CCOC(=O)c1c(NC(=O)CC2S/C(=N/C)N(C)C2=O)sc(C)c1C (stereo unspecified)	1.2
CCOC(=O)c1c(NC(=O)CC2SC(=N)NC2=O)sc2c1CCCCC2 (stereo unspecified)	1.9
CCOC(=O)c1c(NC(=O)CC2SC(=N)NC2=O)sc2c1CCC2 (stereo unspecified)	1.5
CCOC(=O)c1c(C)csc1NC(=O)CC1SC(=N)NC1=O (stereo unspecified)	2

I = CCOC(=O)c1c(NC(=O)CC2SC(=N)NC2=O)sc2c1CCCC2 (stereo unspecified)
II = COC(=O)c1cc(-c2ccccc2)sc1NC(=O)CC1SC(=N)NC1=O (stereo unspecified)
Recorded fold change (FC) values differ for I and II ; which one is higher? Write down the label attached to your selection.
I
(I: 1.6, II: 0.9)

====

- TEST TARGET: Secreted frizzled-related protein 1 (Homo sapiens)
- ASSAY METHOD TEXT: Inhibition of human SFRP1 transfected in human U20S cells at 15 uM by TCF-luciferase reporter gene assay relative to control
- Assay type: cell-based
- CONDITION LABEL: U2OS
PROPERTY NAME: fold change (FC)

Observe how each entry below is paired with its result.
COMPOUND	fold change (FC)
CCOC(=O)c1c(NC(=O)CC2SC(=N)NC2=O)sc(C)c1C (stereo unspecified)	2.3
CCOC(=O)c1c(NC(=O)CC2SC(=N)NC2=O)sc(C)c1-c1ccccc1 (stereo unspecified)	1.8
CC/N=C1\NC(=O)C(CC(=O)Nc2sc(C)c(C)c2C(=O)OCC)S1 (stereo unspecified)	1.2
COC(=O)c1ccsc1NC(=O)CC1SC(=N)NC1=O (stereo unspecified)	1.2
COC(=O)c1c(NC(=O)CC2SC(=N)NC2=O)sc(C)c1C (stereo unspecified)	1.9
CCOC(=O)c1c(NC(=O)CC2S/C(=N/C)NC2=O)sc(C)c1C (stereo unspecified)	1.2
CCOC(=O)c1ccccc1NC(=O)CC1SC(=N)NC1=O (stereo unspecified)	1.1
CCOC(=O)c1cc(CC)sc1NC(=O)CC1SC(=N)NC1=O (stereo unspecified)	1.7
N=C1NC(=O)C(CC(=O)Nc2sc3c(c2C(N)=O)CCCC3)S1 (stereo unspecified)	1.1

a = CCOC(=O)c1c(NC(=O)CC2SC(=N)NC2=O)sc(Br)c1C (stereo unspecified)
b = CCOC(=O)c1c(NC(=O)CC2SC(=O)NC2=O)sc2c1CCCC2 (stereo unspecified)
Kindly identify which of a and b has the larger recorded fold change (FC) value. Choose, then provide that item's label.
a

====

- TEST TARGET: Secreted frizzled-related protein 1 (Homo sapiens) (UniProt Q8N474)
- ASSAY METHOD TEXT: Inhibition of human SFRP1 transfected in human U20S cells at 30 uM by TCF-luciferase reporter gene assay relative to control
- Assay type: cell-based
- CONDITION LABEL: U2OS
PROPERTY NAME: fold change (FC)

Previously resolved entries follow.
COMPOUND	fold change (FC)
N=C1NC(=O)C(CC(=O)Nc2cccc(Cl)c2Cl)S1 (stereo not given)	1
N=C1NC(=O)C(CC(=O)Nc2cccc(Cl)c2)S1 (stereo not given)	1.7
N=C1NC(=O)C(CC(=O)Nc2ccccc2)S1 (stereo not given)	1.1

1 = CCOC(=O)c1cccc(NC(=O)CC2SC(=N)NC2=O)c1 (stereo not given)
2 = N=C1NC(=O)C(CC(=O)NCc2cccc(Cl)c2)S1 (stereo not given)
Please compare: 1 and 2 . Report which one has the smaller fold change (FC) value. I would appreciate it if you answered with the label of your choice.
2
(2: 1, 1: 1.5)
